test system: E. multilocularis metacestode vesicles; experiment: Phosphoglucose isomerase (PGI) release assay (damage-marker release) on metacestode vesicles; assay type: cell-based, Echinococcus multilocularis; settings: overview screen, 10 μM, singlets, 12 days, relative to 0.1 % Triton X-100, DMSO subtracted
Entries and their PGI d12 (relative PGI release) values follow.
Outcome Measure: PGI d12 (relative PGI release)

1) CCc1ccccc1OCCN1CCCCCC1: -18.8642%
2) CCc1cc(Cc2cnc(N)nc2N)cc2c1N(C)CCC2C (stereo not shown): 80.495%
3) Fc1ccc(-c2nc(-c3c[nH]c4ccc(Br)cc34)[nH]c2-c2ccc(F)cc2)cc1: 72.794%
4) C/C(=N\NC(=O)C1CC1c1ccccc1)c1ccc(NC(=O)c2ccco2)cc1 (stereo not shown): -0.8271%
5) CCc1nc(N)nc(N)c1C#CCc1ccccc1: -5.576%
6) CN(C/C=C/C#CC(C)(C)C)Cc1cccc2ccccc12: -21.017%
7) NC(=O)C(c1ccccc1)(c1ccccc1)[C@H]1CCCN(CCc2ccc3c(c2)CCO3)C1: 2.087%
8) COc1cc(C)c2c(Oc3cccc(C(F)(F)F)c3)c(OC)cc(NC(C)CCCN)c2n1.O=C(O)CCC(=O)O (stereo not shown): -12.8411%
9) Nc1nc2c(Cc3cccnc3)c[nH]c2c(=O)[nH]1: 0.236%
10) O=c1cc(OCc2ccccc2)ccn1Cc1ccccc1: -10.779%
